// provenance: patent US10597391B2

target or test system: human FXR (NR1H4) (Homo sapiens)
assay name: Human FXR (NR1H4) Assay: Gal4 promoter driven luciferase reporter transactivation in CHO cells (Indigo Bioscience kit IB00601)
Type: cell-based
experimental context: potency range, Human FXR (NR1H4) reporter assay in CHO cells; read-out: EC50
pEC50: −log10 of the molar value.
assay endpoint: pEC50

Example results:
[[record]]
compound = "CC(C)(C)c1cccc(NC(=O)N2C3CCC2CC(OCc2c(-c4c(Cl)cccc4Cl)noc2C2CC2)C3)c1 (stereo not drawn) [Example 4]"
test_value = "7.00 to 8.00"

[[record]]
compound = "CCOC(=O)c1ccc(NC(=O)N2C3CCC2CC(NCc2c(-c4ccccc4OC(F)(F)F)noc2C2CC2)C3)c(OCC)c1 (stereo not drawn) [Example 831]"
test_value = "7.00 to 8.00"


As a next step, examine the compound that follows.
Lookup: Provide the documented pEC50 with human FXR (NR1H4) (Homo sapiens) as the system for O=C(Nc1ccc2ccccc2c1)N1C2CCC1CC(OCc1c(-c3c(Cl)cccc3Cl)noc1C1CC1)C2 (stereo not drawn) [Example 20]
Found: 7.00 to 8.00

----------
target or test system: human FXR (NR1H4) (Homo sapiens, UniProt Q96RI1)
assay name: Human FXR (NR1H4) Assay: Gal4 promoter driven luciferase reporter transactivation in CHO cells (Indigo Bioscience kit IB00601)
Type: cell-based
experimental context: potency range, Human FXR (NR1H4) reporter assay in CHO cells; read-out: EC50
This section presents compounds with their documented EC50 values.

Example results:
[[record]]
compound = "COC(=O)c1cc(NC(=O)N2C3CCC2CC(OCc2c(-c4c(Cl)cccc4Cl)noc2C2CC2)C3)cc(-c2cccnc2)c1 (stereo not drawn)"
test_value = "< 10 nM"

[[record]]
compound = "O=C(NCc1ccccc1-c1ccccc1)N1C2CCC1CC(OCc1c(-c3c(Cl)cccc3Cl)noc1C1CC1)C2 (stereo not drawn)"
test_value = "< 10 nM"


As a next step, examine the compound that follows.
Lookup: Dear colleague, I am looking for the recorded EC50 of the following compound: O=C(O)CNC(=O)c1ccc(NC(=O)N2C3CCC2CC(OCc2c(-c4c(Cl)cccc4Cl)noc2C2CC2)C3)c(F)c1 (stereo not drawn)
Found: 100 to 1000 nM

----------
target or test system: human FXR (NR1H4) (Homo sapiens, UniProt Q96RI1)
assay name: Human FXR (NR1H4) Assay: Gal4 promoter driven luciferase reporter transactivation in CHO cells (Indigo Bioscience kit IB00601)
Type: cell-based
experimental context: CHO, efficacy normalized to CDCA set as 100%; read-out: Efficacy (%)
This section presents compounds with their documented Emax values.
API: value field is a number in %; no unit string.

Example results:
[[record]]
compound = "O=C(NCc1ccccc1-c1ccccc1)N1C2CCC1CC(OCc1c(-c3c(Cl)cccc3Cl)noc1C1CC1)C2 (stereo not drawn) [Example 740]"
test_value = 90

[[record]]
compound = "CCOc1cc(C(=O)OC)ccc1NC(=O)N1C2CCC1CC(OCc1c(-c3c(Cl)cccc3Cl)noc1C1CC1)C2 (stereo not drawn) [Example 718]"
test_value = 119

[[record]]
compound = "COC(=O)c1cc(OC)c(NC(=O)N2C3CCC2CC(OCc2c(-c4c(Cl)cccc4Cl)noc2C2CC2)C3)cc1-c1ccccc1 (stereo not drawn) [Example 792]"
test_value = 92

[[record]]
compound = "COc1ccc(C(=O)O)cc1NC(=O)N1C2CCC1CC(OCc1c(-c3ccccc3OC(F)(F)F)noc1C1CC1)C2 (stereo not drawn) [Example 750]"
test_value = 76

[[record]]
compound = "O=C(O)c1cccnc1NC(=O)N1C2CCC1CC(OCc1c(-c3ccccc3OC(F)(F)F)noc1C1CC1)C2 (stereo not drawn) [Example 772]"
test_value = 31


Lookup: Dear colleague, I am looking for the recorded Emax of the following compound: O=C(O)c1ccc(NC(=O)N2C3CCC2CC(OCc2c(-c4ccccc4C(F)(F)F)noc2C2CC2)C3)c(F)c1 (stereo not drawn) [Example 807]
Found: 42

Lookup: Now the same for O=C(Nc1ccc(-c2ccccc2)cc1)N1C2CCC1CC(OCc1c(-c3c(Cl)cccc3Cl)noc1C1CC1)C2 (stereo not drawn) [Example 728]
Found: 141

Lookup: Now the same for O=C(O)c1ccc(NC(=O)N2C3CCC2CC(OCc2c(-c4ccccc4C4CC4)noc2C2CC2)C3)c(C(F)(F)F)c1 (stereo not drawn) [Example 820]
Found: 13

Lookup: Now the same for O=C(O)c1ccc(F)c(NC(=O)N2C3CCC2CC(OCc2c(-c4ccccc4OC(F)(F)F)noc2C2CC2)C3)c1 (stereo not drawn) [Example 748]
Found: 103

Lookup: Now the same for O=C(NCc1cncc(-c2ccccc2)c1)N1C2CCC1CC(OCc1c(-c3c(Cl)cccc3Cl)noc1C1CC1)C2 (stereo not drawn) [Example 739]
Found: 108

Lookup: Now the same for COC(=O)c1ccc(F)c(NC(=O)N2C3CCC2CC(OCc2c(-c4ccccc4OC(F)(F)F)noc2C2CC2)C3)c1 (stereo not drawn) [Example 747]
Found: 145

Lookup: Now the same for CCOc1cc(C(=O)O)ccc1NC(=O)N1C2CCC1CC(OCc1c(-c3ccccc3C(F)(F)F)noc1C1CC1)C2 (stereo not drawn) [Example 812]
Found: 102

----------
target or test system: human FXR (NR1H4) (Homo sapiens, UniProt Q96RI1)
Sequence (Q96RI1 1-486): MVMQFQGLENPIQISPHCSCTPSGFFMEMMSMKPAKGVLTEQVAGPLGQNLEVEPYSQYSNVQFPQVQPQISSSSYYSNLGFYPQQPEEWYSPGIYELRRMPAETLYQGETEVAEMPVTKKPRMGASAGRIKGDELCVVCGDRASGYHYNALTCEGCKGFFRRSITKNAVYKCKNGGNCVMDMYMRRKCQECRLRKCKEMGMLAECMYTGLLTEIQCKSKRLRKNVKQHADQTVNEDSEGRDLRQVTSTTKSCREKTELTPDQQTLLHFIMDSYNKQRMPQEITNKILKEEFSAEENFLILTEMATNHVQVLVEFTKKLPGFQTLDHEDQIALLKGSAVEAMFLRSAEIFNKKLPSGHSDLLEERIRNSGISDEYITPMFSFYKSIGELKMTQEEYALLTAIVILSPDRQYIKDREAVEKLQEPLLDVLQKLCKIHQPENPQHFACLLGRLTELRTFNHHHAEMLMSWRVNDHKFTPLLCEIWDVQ
assay name: Human FXR (NR1H4) Assay: Gal4 promoter driven luciferase reporter transactivation in CHO cells (Indigo Bioscience kit IB00601)
Type: cell-based
experimental context: CHO, efficacy normalized to CDCA set as 100%; read-out: Efficacy (%)
Procedure: Human FXR (NR1H4) Assay Determination of a ligand mediated Gal4 promoter driven transactivation to quantify ligand binding mediated activation of FXR. […] The principle application of this reporter assay system is to quantify functional activity of human FXR. […] Luminescence intensity of the reaction is quantified using a plate-reading luminometer, Envision. […] Cells were incubated for additional 22 hours before luciferase activities were measured. […] Read time may be 0.5 second (500 mSec) per well.
assay endpoint: Emax (%)
API: value field is a number in %; no unit string.

Example results:
[[record]]
compound = "COC(=O)c1ccc(NC(=O)N2C3CCC2CC(OCc2c(-c4c(Cl)cccc4Cl)noc2C2CC2)C3)cc1-c1ccc(C(F)(F)F)nc1 (stereo not shown)"
unit_of_measurement = "%"
test_value = 95

[[record]]
compound = "N#Cc1cncc(NC(=O)N2C3CCC2CC(OCc2c(-c4c(Cl)cccc4Cl)noc2C2CC2)C3)c1 (stereo not shown)"
unit_of_measurement = "%"
test_value = 170

[[record]]
compound = "O=C(O)c1ccc(NC(=O)N2C3CCC2CC(OCc2c(-c4ccccc4OC(F)(F)F)noc2C2CC2)C3)nc1 (stereo not shown)"
unit_of_measurement = "%"
test_value = 132

[[record]]
compound = "O=C(NS(=O)(=O)c1ccccc1)c1ccc(NC(=O)N2C3CCC2CC(OCc2c(-c4ccccc4OC(F)(F)F)noc2C2CC2)C3)cc1 (stereo not shown)"
unit_of_measurement = "%"
test_value = 205

[[record]]
compound = "O=C(O)c1ccc(NC(=O)N2C3CCC2CC(OCc2c(-c4c(Cl)cccc4Cl)noc2C2CC2)C3)nc1 (stereo not shown)"
unit_of_measurement = "%"
test_value = 31

[[record]]
compound = "O=C(O)c1ccc(NC(=O)N2C3CCC2CC(OCc2c(-c4ccccc4C(F)(F)F)noc2C2CC2)C3)c(C(F)(F)F)c1 (stereo not shown)"
unit_of_measurement = "%"
test_value = 20


Lookup: Dear colleague, I am looking for the recorded Emax of the following compound: COC(=O)c1ccc(OC)c(NC(=O)N2C3CCC2CC(OCc2c(-c4ccccc4OC(F)(F)F)noc2C2CC2)C3)c1 (stereo not shown)
Found: 104

----------
This section presents compounds with their documented EC50 values.
target or test system: human FXR (NR1H4) (Homo sapiens, UniProt Q96RI1)
assay name: Human FXR (NR1H4) Assay: Gal4 promoter driven luciferase reporter transactivation in CHO cells (Indigo Bioscience kit IB00601)
Format: cell-based
experimental context: potency range, Human FXR (NR1H4) reporter assay in CHO cells; read-out: EC50

[[record]]
compound = "O=C(O)c1ccc(NC(=O)N2C3CCC2CC(OCc2c(-c4ccccc4OC(F)(F)F)noc2C2CC2)C3)cc1-c1ccccc1 (stereo not drawn)"
test_value = "< 0.01 µM"


Lookup: Dear colleague, I am looking for the recorded EC50 of the following compound: O=C(NCc1ccc(-c2ccccc2)cc1)N1C2CCC1CC(OCc1c(-c3c(Cl)cccc3Cl)noc1C1CC1)C2 (stereo not drawn)
Found: 0.1 to 1 µM

Lookup: Now the same for N#Cc1cncc(NC(=O)N2C3CCC2CC(OCc2c(-c4c(Cl)cccc4Cl)noc2C2CC2)C3)c1 (stereo not drawn)
Found: < 0.01 µM

Lookup: Now the same for O=C(Nc1cccc(-c2nccs2)c1)N1C2CCC1CC(OCc1c(-c3c(Cl)cccc3Cl)noc1C1CC1)C2 (stereo not drawn)
Found: < 0.01 µM

Lookup: Now the same for CCOC(=O)c1cccnc1NC(=O)N1C2CCC1CC(OCc1c(-c3ccccc3OC(F)(F)F)noc1C1CC1)C2 (stereo not drawn)
Found: 0.1 to 1 µM

Lookup: Now the same for COc1c(NC(=O)N2C3CCC2CC(OCc2c(-c4ccccc4OC(F)(F)F)noc2C2CC2)C3)cccc1C(=O)OC(C)(C)C (stereo not drawn)
Found: > 1 µM

Lookup: Now the same for O=C(Nc1cncc(C(F)(F)F)c1)N1C2CCC1CC(OCc1c(-c3c(Cl)cccc3Cl)noc1C1CC1)C2 (stereo not drawn)
Found: < 0.01 µM

Lookup: Now the same for O=C(Nc1ccccc1)N1C2CCC1CC(OCc1c(-c3c(Cl)cccc3Cl)noc1C1CC1)C2 (stereo not drawn)
Found: < 0.01 µM
